Assignment: determine reported recombinant UMI read abundance (log10) for the given sequences.
- experiment: recombinant UMI read abundance after kanamycin selection (control-corrected) (log10(CPM+1)); higher = more efficient recombination; extreme values may be limits of the assay; sequences stand for … in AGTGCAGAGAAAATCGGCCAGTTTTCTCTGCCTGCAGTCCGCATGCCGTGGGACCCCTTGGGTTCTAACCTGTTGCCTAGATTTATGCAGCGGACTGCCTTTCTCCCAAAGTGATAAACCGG…AGGTTGGTTTCACT; site = the 11-nt donor;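 note: IS621 bridge recombinase in Escherichia coli cells against a fixed T5 target plasmid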
Numbers only.

ACCTCGACATGGACCGGTTTTCCCGGTAATCCGTATTTGGG (site ACCTCGACTCC) | 0.00574

// for each sequence below, give its recombinant UMI read abundance (log10)
1. ACAGTACCATGGACCGGTTTTCCCGGTAATCCGTATTTGAA (site ACAGTACCTTT)
2. TCCAGCGCATGGACCGGTTTTCCCGGTAATCCGTATTTGCG (site TCCAACGCTCG)
3. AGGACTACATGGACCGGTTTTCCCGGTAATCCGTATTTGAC (site AGGACTACTGC)
4. GTAGGGTCATGGACCGGTTTTCCCGGTAATCCGTATTTGTT (site GTAGGGTCTAA)
5. TAGGATTCATGGACCGGTTTTCCCGGTAATCCGTATTTGCG (site TAGGAATCTCG)
6. CCTAATACATGGACCGGTTTTCCCGGTAATCCGTATTTGAC (site CCTAATACTGG)
7. ACATGTACATGGACCGGTTTTCCCGGTAATCCGTATTTGTG (site ACATGTACTCA)
8. GCAGACACATGGACCGGTTTTCCCGGTAATCCGTATTTGAT (site GCAGACACTAT)

Response:
[0.501, 0, 0.68, 2.38, 1.73, 0, 1.07, 1.89]
